Hello, the source for this data is patent US20160008277A1, in case you need it.

Experiment: clinical
Settings: male, human, plasma, other: intranasal (IN), 8 mg, Tmax (median), Two 40 mg/mL IN; Male
MEASURED QUANTITY: Tmax
Returns: string containing the number followed by the unit.

*Q* Form field: reported Tmax of C=CCN1CC[C@]23c4c5ccc(O)c4O[C@H]2C(=O)CC[C@@]3(O)[C@H]1C5 [naloxone]
*A* 25.2 min

* * *

Experiment: clinical
Conditions: male, human, plasma, im, 0.4 mg, Tmax (median), 0.4 mg IM
MEASURED QUANTITY: Tmax
Be sure to follow the number with its unit.

*Q* Any idea what Tmax was measured for C=CCN1CC[C@]23c4c5ccc(O)c4O[C@H]2C(=O)CC[C@@]3(O)[C@H]1C5 ?
*A* 30 min
